- target: T1, hFLAG-EGF34+NRR-His6 (101V), the human Notch1 NRR immunogen (human Notch1 V1307-Q1733) (human, UniProt P46531 1307-1733)
- T1 construct: Secreted from Sf-9 cells; also called hNotch1 NRR; human NRR1
- T1 sequence (P46531 other isoform, or with tags, fused parts or gaps limits assumed): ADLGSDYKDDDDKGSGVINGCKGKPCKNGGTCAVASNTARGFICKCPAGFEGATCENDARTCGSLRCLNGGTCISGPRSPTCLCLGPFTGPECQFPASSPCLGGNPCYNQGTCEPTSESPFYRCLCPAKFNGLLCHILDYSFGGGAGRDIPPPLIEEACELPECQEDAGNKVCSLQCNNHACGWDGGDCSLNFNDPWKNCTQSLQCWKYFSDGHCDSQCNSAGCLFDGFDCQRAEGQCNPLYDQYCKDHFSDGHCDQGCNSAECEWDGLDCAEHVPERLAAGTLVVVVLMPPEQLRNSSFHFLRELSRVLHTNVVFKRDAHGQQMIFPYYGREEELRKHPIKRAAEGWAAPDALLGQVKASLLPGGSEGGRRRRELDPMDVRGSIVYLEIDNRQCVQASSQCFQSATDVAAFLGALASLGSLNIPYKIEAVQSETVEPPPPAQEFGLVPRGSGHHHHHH
- protocolDescription: SPR (BIAcore-3000), IgG captured on rabbit anti-human IgG, NRR1-ECD protein injected 3.9-500 nM, 25 C, 1:1 Langmuir
reportedEndpoint: koff (s⁻¹)
Hi! Could you send only the number? It should be in s⁻¹, unit omitted.

Antibody A-3 (antibody, V domains shown) VH: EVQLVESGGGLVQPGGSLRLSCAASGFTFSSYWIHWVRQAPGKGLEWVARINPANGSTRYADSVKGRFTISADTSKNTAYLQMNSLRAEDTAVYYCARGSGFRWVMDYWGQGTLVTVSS VL: DIQMTQSPSSLSASVGDRVTITCRASQDVSTAVAWYQQKPGKAPKLLIYSASFLYSGVPSRFSGSGSGTDFTLTISSLQPEDFATYYCQQSFSTPATFGQGTKVEIKR    0.0004

[in] For the binder shown here, Antibody A-1 (antibody, IgG1, V domains shown, also called Antibody A-1-hIgG1) VH: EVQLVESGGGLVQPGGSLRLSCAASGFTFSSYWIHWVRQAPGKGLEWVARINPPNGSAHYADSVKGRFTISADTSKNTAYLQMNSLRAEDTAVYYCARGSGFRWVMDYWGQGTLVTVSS VL: DIQMTQSPSSLSASVGDRVTITCRASQDVSTAVAWYQQKPGKAPKLLIYSASFLYSGVPSRFSGSGSGTDFTLTISSLQPEDFATYYCQQSYTTPATFGQGTKVEIKR , give the reported koff.
[out] 0.00023

[in] One more binder: Antibody A-2 (antibody, IgG1, V domains shown, also called Antibody A-2-hIgG1) VH: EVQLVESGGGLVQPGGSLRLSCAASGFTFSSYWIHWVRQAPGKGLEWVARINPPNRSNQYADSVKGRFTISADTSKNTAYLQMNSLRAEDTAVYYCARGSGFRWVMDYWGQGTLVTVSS VL: DIQMTQSPSSLSASVGDRVTITCRASQDVSTAVAWYQQKPGKAPKLLIYSASFLYSGVPSRFSGSGSGTDFTLTISSLQPEDFATYYCQQFYTTPSTFGQGTKVEIKR
[out] 0.00022

[in] One more binder: Antibody A (antibody, IgG1, V domains shown, also called anti-Notch1 NRR Antibody A; Antibody A-hIgG1) VH: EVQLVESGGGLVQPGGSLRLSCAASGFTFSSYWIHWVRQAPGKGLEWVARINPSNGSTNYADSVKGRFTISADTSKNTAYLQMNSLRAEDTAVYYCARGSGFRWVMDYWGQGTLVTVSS VL: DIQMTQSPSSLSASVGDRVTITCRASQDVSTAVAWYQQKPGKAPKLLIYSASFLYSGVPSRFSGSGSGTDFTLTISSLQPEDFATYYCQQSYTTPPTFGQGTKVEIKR
[out] 0.011
